Consider the following molecules; for each one, report its Z.LYZ.NS.
- Test system: ENR+CD organoids (ISC to Paneth cell differentiation)
- test: Primary screen: basal (non-stimulated) lysozyme secretion LYZ.NS, 2.5-D 384-well ENR+CD organoid differentiation
- Format: cell-based, mouse
- condition.set: primary screen, dose 10.00 uM, standard z score
Keep it simple and answer with nothing but the number.

Q: ENR+CD organoids (ISC to Paneth cell differentiation) / Z.LYZ.NS / Cc1ccc(S(=O)(=O)c2ccc([N+](=O)[O-])o2)cc1 [NSC697923] : value?
Result: −1.338

Q: ENR+CD organoids (ISC to Paneth cell differentiation) / Z.LYZ.NS / O=C(O)/C=C/c1ccc(Cn2ccnc2)cc1 [Ozagrel] : value?
Result: −0.068

Q: ENR+CD organoids (ISC to Paneth cell differentiation) / Z.LYZ.NS / CC(C)(C)n1nc(-c2ccc(Cl)cc2)c2c(N)ncnc21 [PP2] : value?
Result: −0.235

Q: ENR+CD organoids (ISC to Paneth cell differentiation) / Z.LYZ.NS / Cc1ccc(C(=O)N(CCCN)[C@@H](c2oc3cc(Cl)ccc3c(=O)c2Cc2ccccc2)C(C)C)cc1 [SB743921] : value?
Result: −2.068

Q: ENR+CD organoids (ISC to Paneth cell differentiation) / Z.LYZ.NS / CC(C)(Cc1ccc2ccccc2c1)NC[C@@H](O)COc1cccc(Cl)c1C#N [NPS-2143] : value?
Result: −0.597

Q: ENR+CD organoids (ISC to Paneth cell differentiation) / Z.LYZ.NS / O=C(NC(Cc1cc(=O)[nH]c2ccccc12)C(=O)O)c1ccc(Cl)cc1 (centres unmarked) [Rebamipide] : value?
Result: −0.773

Q: ENR+CD organoids (ISC to Paneth cell differentiation) / Z.LYZ.NS / O=C(NNc1ccccc1)c1ccncc1 [PluriSIn #1 (NSC 14613)] : value?
Result: −2.475

Q: ENR+CD organoids (ISC to Paneth cell differentiation) / Z.LYZ.NS / C[C@@H]1O[C@@H](O[C@H]2C[C@@H](O)[C@]3(CO)[C@H]4[C@H](O)C[C@]5(C)[C@@H](C6=CC(=O)OC6)CC[C@]5(O)[C@@H]4CC[C@]3(O)C2)[C@H](O)[C@H](O)[C@H]1O [Ouabain] : value?
Result: 1.433
